- TARGET ENTITY: UniProt Q8VGX3
- Sequence (Q8VGX3 as listed by the source): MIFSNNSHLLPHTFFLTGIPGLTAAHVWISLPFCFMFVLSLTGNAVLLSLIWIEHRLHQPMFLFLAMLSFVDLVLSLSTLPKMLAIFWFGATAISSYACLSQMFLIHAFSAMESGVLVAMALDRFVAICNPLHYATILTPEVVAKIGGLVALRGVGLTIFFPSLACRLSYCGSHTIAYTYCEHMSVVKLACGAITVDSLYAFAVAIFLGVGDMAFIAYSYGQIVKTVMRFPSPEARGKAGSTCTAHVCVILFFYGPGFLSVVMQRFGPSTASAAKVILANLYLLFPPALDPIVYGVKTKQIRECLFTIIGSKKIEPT
- CONDITION SUMMARY: stereoisomer not certain
// classify into yes (active), no (inactive)

> print(dat)
                                   molecule   target.entity  class.assignment
1  CC1CCC(C(C)C)C(=O)C1 (configuration not stated)  UniProt Q8VGX3                no

Input: State the result this test recorded for "CC=Cc1ccc(OC)cc1" .
Output: no

Input: Hi, sorry to bother you, what did the test record for CCCC(C)C(=O)OCC (configuration not stated) ?
Output: no

Input: Status in this test for CCC(C)c1nccnc1OC (configuration not stated) ?
Output: no

Input: For "CC(=O)OCc1ccccc1" , what call appears in the results of this test?
Output: no

Input: Assay outcome for "C=CC(=C)CCC=C(C)CCC=C(C)C" : what was it?
Output: no

Input: Kindly provide the recorded test outcome for the following molecule: C=C(C)C1CC=C(C)CC1 (configuration not stated)
Output: yes

Input: Test call, this molecule: "CCCCCCCOC(=O)C(C)C"
Output: no

Input: Record lookup: outcome of this test for "CCCCCCCCO" ?
Output: no

Input: I'd appreciate the recorded outcome for "CC(C)=CCCC(C)=CCOC(=O)C(C)C" from this test.
Output: no
